- system_name: β2 adrenergic receptor
- run_description: ELISA of panned Gs library clones on reconstituted receptor
Here, each record is paired with measured ELISA data.

| binder | ELISA |
| --- | --- |
| QRLHLRGYEFL [AG13 …] | 0.054 |

### Prompt Could you share which ELISA value was measured for ERLHRRLFQLH [BAR8 …] ?
### Response 0.047

### Prompt Then what about the binder QRMNLGPCGLL [AG18 …] ?
### Response 0.155

### Prompt Then what about the binder NCMKFRSCGLF [BAR20 …] ?
### Response 0.079

Where these numbers come from: patent US20080280308A1
